# test_system: DPP4 (Homo sapiens)
# measurement_notes: DPP4 activity assay (DPP4 inhibitor screening assay kit, Cayman)
# Type: biochemical
# Design: purchased Cayman Chemical, Ann Arbor, MI, USA
# measurement_conditions: 0.5 h, 10 µM; control mean 100.0; mean of Exp 1-3; read-out: DPP4 activity in library screen, Mean
Here, each record is paired with measured remaining activity at 10 µM data.
Dear colleague, please return just the value in %, with no unit written.

Example entries begin here.
{"chemical_smiles": "C=CCc1ccc(O)c(-c2cc(CC=C)ccc2O)c1", "remaining activity at 10 µM, %": 96.4}
{"chemical_smiles": "O=C(CCc1ccc(O)cc1)c1c(O)cc(O)cc1O[C@@H]1O[C@H](CO)[C@@H](O)[C@H](O)[C@H]1O", "remaining activity at 10 µM, %": 87.8}
{"chemical_smiles": "COc1ccc(-c2cc(=O)c3c(O)cc(O)cc3o2)cc1O", "remaining activity at 10 µM, %": 77.4}
{"chemical_smiles": "O=C(O)C1=C[C@@H](O)[C@@H](O)[C@H](O)C1", "remaining activity at 10 µM, %": 84.3}
{"chemical_smiles": "COc1ccc2cc1Oc1ccc(cc1)C[C@H]1c3cc(c(OC)cc3CCN1C)Oc1c(OC)c(OC)cc3c1[C@H](C2)N(C)CC3", "remaining activity at 10 µM, %": 99.2}
{"chemical_smiles": "CC1(C)[C@@H](O[C@H]2O[C@H](C(=O)O)[C@@H](O)[C@H](O)[C@H]2O[C@@H]2O[C@H](C(=O)O)[C@@H](O)[C@H](O)[C@H]2O)CC[C@]2(C)[C@H]3C(=O)C=C4[C@@H]5C[C@@](C)(C(=O)O)CC[C@]5(C)CC[C@@]4(C)[C@]3(C)CC[C@@H]12", "remaining activity at 10 µM, %": 93.8}
{"chemical_smiles": "C=C[C@](C)(O)CC[C@@H]1[C@@]2(C)CCCC(C)(C)[C@@H]2CC[C@@]1(C)O", "remaining activity at 10 µM, %": 84.1}
{"chemical_smiles": "C[C@H]1CC[C@]2(NC1)O[C@H]1C[C@H]3[C@@H]4CC[C@H]5C[C@@H](O[C@@H]6O[C@H](CO)[C@H](O[C@@H]7O[C@H](CO)[C@@H](O)[C@H](O[C@@H]8OC[C@@H](O)[C@H](O)[C@H]8O)[C@H]7O[C@@H]7O[C@H](CO)[C@@H](O)[C@H](O)[C@H]7O)[C@H](O)[C@H]6O)CC[C@]5(C)[C@H]4CC[C@]3(C)[C@H]1[C@@H]2C", "remaining activity at 10 µM, %": 106}
{"chemical_smiles": "CC[C@H](CC[C@@H](C)[C@H]1CC[C@H]2[C@@H]3CC=C4C[C@@H](O)CC[C@]4(C)[C@H]3CC[C@]12C)C(C)C", "remaining activity at 10 µM, %": 98.2}

Next item in the queue.
Q) Consider the compound `COc1cc2c(cc1OC)[C@@H]1Cc3ccc(OC)c(OC)c3CN1CC2` and give its measured remaining activity at 10 µM.
A) 102

###

# test_system: DPP4 (Homo sapiens, UniProt P27487)
# Sequence (P27487 whole entry): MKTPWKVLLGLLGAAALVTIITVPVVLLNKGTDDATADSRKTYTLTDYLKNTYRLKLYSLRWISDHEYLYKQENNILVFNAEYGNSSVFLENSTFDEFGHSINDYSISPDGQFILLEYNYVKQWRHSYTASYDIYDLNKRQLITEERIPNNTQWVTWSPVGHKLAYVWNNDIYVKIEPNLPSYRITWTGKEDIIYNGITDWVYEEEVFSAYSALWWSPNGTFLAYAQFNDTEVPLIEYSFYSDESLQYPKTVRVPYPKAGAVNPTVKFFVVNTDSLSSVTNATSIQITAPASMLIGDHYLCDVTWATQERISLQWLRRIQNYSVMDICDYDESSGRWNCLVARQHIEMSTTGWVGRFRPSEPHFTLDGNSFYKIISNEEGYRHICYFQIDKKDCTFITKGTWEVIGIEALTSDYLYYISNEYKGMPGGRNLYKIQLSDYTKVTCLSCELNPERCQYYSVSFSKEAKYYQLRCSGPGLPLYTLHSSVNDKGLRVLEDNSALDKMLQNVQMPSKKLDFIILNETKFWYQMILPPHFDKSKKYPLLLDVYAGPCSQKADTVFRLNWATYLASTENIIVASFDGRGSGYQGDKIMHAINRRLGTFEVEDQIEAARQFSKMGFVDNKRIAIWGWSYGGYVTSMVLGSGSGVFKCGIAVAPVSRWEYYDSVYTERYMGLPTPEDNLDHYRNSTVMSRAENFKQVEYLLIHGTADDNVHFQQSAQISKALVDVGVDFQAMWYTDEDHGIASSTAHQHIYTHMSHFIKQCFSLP
# measurement_notes: DPP4 activity assay (DPP4 inhibitor screening assay kit, Cayman)
# Type: biochemical
# Design: purchased Cayman Chemical, Ann Arbor, MI, USA
# measurement_conditions: 0.5 h, 10 µM; control mean 100.0; Figure 1A raw data; read-out: DPP4 activity in library screen, Exp 2
assay_endpoint: remaining activity at 10 µM
# do not omit the unit; it follows the number

Example entries begin here.
{"chemical_smiles": "Nc1nc2c(ncn2[C@@H]2O[C@H](CO)[C@@H](O)[C@H]2O)c(=O)[nH]1", "remaining activity at 10 µM": "102%"}
{"chemical_smiles": "OC[C@H]1O[C@@H](Oc2ccc(O)cc2)[C@H](O)[C@@H](O)[C@@H]1O", "remaining activity at 10 µM": "96.2%"}
{"chemical_smiles": "O=C(O)CCCc1c[nH]c2ccccc12", "remaining activity at 10 µM": "93.9%"}
{"chemical_smiles": "c1coc(CNc2ncnc3[nH]cnc23)c1", "remaining activity at 10 µM": "93.8%"}

Q) Consider the compound `O=c1c(O)c(-c2ccc(O)c(O)c2)oc2cc(O)ccc12` and give its measured remaining activity at 10 µM.
A) 74%

Q) What about `O=c1cc(-c2ccc(O)cc2)oc2cc(O)cc(O)c12` ?
A) 70.3%

Q) What about `O=C(O)C1=C[C@@H](O)[C@@H](O)[C@H](O)C1` ?
A) 80.7%

Q) What about `N#C[C@H](O[C@@H]1O[C@H](CO[C@@H]2O[C@H](CO)[C@@H](O)[C@H](O)[C@H]2O)[C@@H](O)[C@H](O)[C@H]1O)c1ccccc1` ?
A) 94.7%

###

# test_system: DPP4 (Homo sapiens, UniProt P27487)
# measurement_notes: DPP4 activity assay (DPP4 inhibitor screening assay kit, Cayman);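 also: fluorescence read at excitation 360 nm and emission 460 nm after the enzyme reaction ran 30 min at 37 °C in a 96-well plate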
# Type: biochemical
# Design: purchased Cayman Chemical, Ann Arbor, MI, USA
# measurement_conditions: 0.5 h, 10 µM; control mean 100.0; Figure 1A raw data; read-out: DPP4 activity in library screen, Exp 3
assay_endpoint: remaining activity at 10 µM (%)
Dear colleague, please return just the value in %, with no unit written.

Example entries begin here.
{"molecule": "COc1ccc(-c2cc(=O)c3c(OC)c(OC)c(OC)c(OC)c3o2)cc1OC", "test_system": "DPP4 (Homo sapiens, UniProt P27487)", "remaining activity at 10 µM / %": 67.6}
{"molecule": "COc1ccc2ccc(=O)oc2c1CC=C(C)C", "test_system": "DPP4 (Homo sapiens, UniProt P27487)", "remaining activity at 10 µM / %": 87.3}
{"molecule": "C[C@H]1[C@H](C)CC[C@]2(C(=O)O)CC[C@]3(C)C(=CC[C@@H]4[C@@]5(C)CC[C@H](O)C(C)(C)[C@@H]5CC[C@]43C)[C@H]12", "test_system": "DPP4 (Homo sapiens, UniProt P27487)", "remaining activity at 10 µM / %": 89.1}
{"molecule": "O=c1c2ccccc2nc2n1CCc1c-2[nH]c2ccccc12", "test_system": "DPP4 (Homo sapiens, UniProt P27487)", "remaining activity at 10 µM / %": 71.4}
{"molecule": "O=C1CCC[C@@H]2[C@H]3CCC[N+]4([O-])CCC[C@@H](CN12)[C@@H]34 (some centres unmarked)", "test_system": "DPP4 (Homo sapiens, UniProt P27487)", "remaining activity at 10 µM / %": 83.7}
{"molecule": "OCc1ccc(O[C@@H]2O[C@H](CO)[C@@H](O)[C@H](O)[C@H]2O)cc1", "test_system": "DPP4 (Homo sapiens, UniProt P27487)", "remaining activity at 10 µM / %": 98.6}

Q) Consider the molecule O=C1c2c(O)cccc2C([C@@H]2O[C@H](CO)[C@@H](O)[C@H](O)[C@H]2O)c2cc(CO)cc(O)c21 (some centres unmarked) and give its measured remaining activity at 10 µM.
A) 71.7

Q) What about C[C@H]1[C@@H](O)O[C@@H]2O[C@@]3(C)CC[C@H]4[C@H](C)CC[C@@H]1[C@@]24OO3 [Dihydroartemisinin (DHA), Dihydroartemisinin] ?
A) 88.2

Q) What about CCCC[N+]1(C)[C@@H]2C[C@@H](OC(=O)[C@H](CO)c3ccccc3)C[C@H]1[C@@H]1O[C@@H]12 (some centres unmarked) [Butylscopolamine bromide] ?
A) 78.2

###

Here, each record is paired with measured DPP4 activity in library screen, Exp 2 data.
# test_system: DPP4 (Homo sapiens)
# measurement_notes: DPP4 activity assay (DPP4 inhibitor screening assay kit, Cayman)
# Assay type: biochemical
# Set-up: purchased Cayman Chemical, Ann Arbor, MI, USA
# measurement_conditions: 10 µM; control mean 100.0; Figure 1A raw data
Would you mind answering with just the numeric figure?

Example entries begin here.
{"compound": "CC(=O)c1c(O)c(C)c(O)c2c1OC1=CC(=O)C(C(C)=O)C(=O)C12C (single isomer, unassigned; (+)) [(+)-Usniacin]", "DPP4 activity in library screen, Exp 2": 90.4}
{"compound": "CCC1=C[C@@H]2CN3CCc4c([nH]c5ccccc45)[C@@](C(=O)OC)(C2)[C@@H]13 [Catharanthine]", "DPP4 activity in library screen, Exp 2": 93.7}
{"compound": "O=c1c(O)c(-c2cc(O)c(O)c(O)c2)oc2cc(O)cc(O)c12 [Myricetin]", "DPP4 activity in library screen, Exp 2": 57.5}
{"compound": "COc1cc2c(cc1O)C[C@@H]1NCCc3cc(OC)c(O)c-2c31 [Norisoboldine]", "DPP4 activity in library screen, Exp 2": 99.3}
{"compound": "C=C1C(=O)O[C@H]2[C@H]1CC/C(C)=C/CC[C@@]1(C)O[C@@H]21 [(-)-Parthenolide]", "DPP4 activity in library screen, Exp 2": 84.6}

Q) Param readout = DPP4 activity in library screen, Exp 2; param system = DPP4 (Homo sapiens); param query = CC1(C)CCC[C@]2(C)[C@H]3CC(=O)O[C@]3(C)CC[C@@H]12 [Sclareolide] ; response: value
A) 80.7

Q) What about Br.CCN1C[C@]2(OC(=O)c3ccccc3NC(C)=O)CC[C@H](OC)[C@]34C1[C@H](C[C@H]23)[C@@]1(O)C[C@H](OC)[C@H]2C[C@@H]4[C@]1(O)[C@H]2OC [Lappaconite HBr] ?
A) 80.2
